B1: TPR 5TU (parent)
chain: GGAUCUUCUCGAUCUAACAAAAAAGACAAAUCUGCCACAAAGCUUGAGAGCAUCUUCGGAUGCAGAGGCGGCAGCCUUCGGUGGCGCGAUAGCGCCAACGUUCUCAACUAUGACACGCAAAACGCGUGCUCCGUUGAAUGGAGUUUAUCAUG

Variants of: B1
MEASUREMENT DESCRIPTION: polymerase ribozyme fitness, log enrichment relative to wild type (log ratio); higher = more active; in vitro selection for triplet polymerase activity
This sample holds only a part of the variants without activity.
In this section we review reported polymerase ribozyme fitness (log ratio) values for a set of variants.

# MUTATION NAME, INEQUALITY SIGN, polymerase ribozyme fitness (log ratio)
measured = [
    ("U55A C57G C87G C93U U104G", "≤", -4.2),
    ("A37G A97G A98G", "=", -2.55),
    ("A40C G42C C69G C85A U104G G128C G133A", "≤", -4.2),
    ("G67C G94A U139A A142U", "≤", -4.2),
    ("A21U C38A U102A A120U A147C", "=", -2.82),
    ("A41C G59U C87U A120U A122C G124U U146C", "=", -2.2),
    ("C43U U45A C63U G81A C95G U111A", "≤", -4.2),
    ("C96U U101C A142C", "=", -1.82),
    ("C14U U56A", "=", -1.8),
    ("A21U G50U", "=", 0.281),
    ("A60G G83A G86A A97C C125G C131G G136A G152U", "≤", -4.2),
    ("U33G U55G G68A C79A G84U G136U", "≤", -4.2),
    ("A24G C123U C132U U134A", "≤", -4.2),
    ("A20U A22G C51A G92A C93A C132U", "≤", -4.2),
    ("A49U U101C C116U", "=", -1.49),
    ("C96G C108A C123G", "=", -3.69),
    ("C96U A97U U134G A138C", "≤", -4.2),
    ("C32U G59C A60C C63G C93A C99U A115G", "≤", -4.2),
    ("U4G G11U A40U U55A A98U", "=", -3.1),
    ("A21C G25U C96A A97G", "=", -3.82),
    ("G48A C57A G92A", "=", -3.32),
    ("C5G C8U A28C U33A U44A C85U U90A U139C", "≤", -4.2),
    ("U77G A89U C95A C114U C125G", "≤", -4.2),
    ("A16G A91U", "≤", -4.2),
    ("U53A C57U A97G", "=", -1.24),
    ("C79G G88U U134C A142U", "≤", -4.2),
    ("A3U G84A G94A A98C G124A", "=", -0.883),
    ("C14A C18U A22U A26U U82C C95U U145G U148C C149U", "≤", -4.2),
    ("A20G A28U G42C A49C C93G C103A", "≤", -4.2),
    ("C14G A29G C54U C132G", "≤", -4.2),
    ("A16U C103G", "=", -3.31),
    ("A41G G88U C131G", "≤", -4.2),
    ("U9C A12C C57U C63U G74C A119G U146G", "≤", -4.2),
    ("A41C A107C G133A U144G", "≤", -4.2),
    ("C8G A24G C54U G68A G71A A91U C95A", "≤", -4.2),
    ("G11A A60G A106G", "=", -0.626),
    ("U82G C96G C118U G141A A147U", "=", -1.93),
    ("A23G C54A U55G G58A G59C", "=", -4.08),
    ("C27G A147C", "=", -4.05),
    ("A21U A41U U55G G83A U145A", "=", -2.5),
    ("C5U A21G G59C C93G", "=", -1.3),
    ("C35U A49G A97G A119C", "=", -2.09),
]
